# test_protocol: NCI Yeast Anticancer Drug Screen. Data for the rad50 strain (AID 155);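 note: 0% = growth of vehicle-only cultures of the same strain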
# test_parameters: S. cerevisiae rad50 strain growth inhibition; at 50.0 µM unless noted
The panel holds about 79,000 compounds, 15% with a hit somewhere; the sample as a whole holds those more often. The source made the active and inactive calls. Cut-off read from the data, not from the text of the source: active = growth inhibition above about 70%; inactive = the rest.
Outcome codes: active, inactive

INSERT INTO results (compound, category_label) VALUES
  ('CC(=O)Nc1cc(Cl)ccc1[N+](=O)[O-]', 'inactive'),
  ('CCCCOC(=O)CC(O)C(=O)OCCCC (configuration not stated)', 'inactive'),
  ('c1ccc(Cc2cncc(Cc3ccccc3)c2)cc1', 'inactive'),
  ('Cc1nc2cccc3ccc4c5ccccc5cc1c4c32', 'active'),
  ('COc1cc2c(cc1OC)C1Cc3ccccc3CCN1CC2 (configuration not stated)', 'inactive'),
  ('CCC(O)c1ccc(OCc2ccccc2)c(OC)c1 (configuration not stated)', 'inactive'),
  ('Cc1cc(C(=O)c2ccccc2)on1', 'inactive');

====

# test_protocol: NCI Yeast Anticancer Drug Screen. Data for the cln2 rad14 strain (AID 165);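 note: 0% = growth equal to vehicle treated cultures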
# test_parameters: S. cerevisiae cln2 rad14 strain, stronger effect = higher value; at 50.0 µM unless noted
Compounds without any hit were thinned out: in the full panel of roughly 79,000, 15% have a hit. Active and inactive are the calls of the source. No stated cut-off is given here; in the data, active means growth inhibition above about 70%; inactive means the rest.
reported_property: growth inhibition

INSERT INTO results (molecule, reported_property, assay_value) VALUES
  ('CS/C(C)=N/OC(=O)NCCCCNc1ccc(N=[N+]=[N-])cc1', 'growth inhibition', '36.7% (inactive)'),
  ('CCOC(=O)NC(=S)c1ccc[nH]1', 'growth inhibition', '4.6% (inactive)'),
  ('COc1ccc(NC(=O)Nc2ccc(F)cc2)c(OC)c1', 'growth inhibition', '13.9% (inactive)'),
  ('Cc1nc2ccncc2[nH]1', 'growth inhibition', '0.05% (inactive)'),
  ('CC1(C)OCC2OC3(c4nc(C#N)c(N)o4)OC(C)(C)OC3C2O1 (centres undefined)', 'growth inhibition', '-1.7% (inactive)'),
  ('C=CCC(O)CCCCC (centres undefined)', 'growth inhibition', '20.7% (inactive)'),
  ('CC(C)CCC(C)C1CCC2C3CCC4CC(=O)CC4(C)C3CCC12C (centres undefined)', 'growth inhibition', '-10.4% (inactive)'),
  ('COc1cccc(-c2cc(=O)c3cc(C)cnc3[nH]2)c1', 'growth inhibition', '-2.4% (inactive)'),
  ('COc1ccc(N2C(=O)c3c(c4[nH]c5ccc(OC)cc5c4c4ccc(C(C)(C)C)cc34)C2=O)cc1', 'growth inhibition', '7.2% (inactive)'),
  ('NCCCC(=S)S', 'growth inhibition', '12.8% (inactive)'),
  ('CC(C)(C)NC(=O)CCCl', 'growth inhibition', '5.6% (inactive)'),
  ('Cc1ccc(C(C)C)c(Oc2cc(C)ccc2C(C)C)c1', 'growth inhibition', '-37.8% (inactive)'),
  ('O=C(CCCN1CCC2(CC1)CC(=O)N(N1CCOCC1)C2=O)c1ccc(F)cc1', 'growth inhibition', '4.5% (inactive)'),
  ('N#Cc1ccc(/C=C(/C(=O)c2ccccc2)c2ccccc2)cc1', 'growth inhibition', '6.85% (inactive)'),
  ('Cc1nc(C(N)=S)sc1C(=O)C/C(=N/N)C(=O)Nc1ccc(Cl)cc1', 'growth inhibition', '-3.65% (inactive)'),
  ('CC1(C)CC([NH-])(C(=O)O)CC(C)(C)N1O.CC1(C)CC([NH-])(C(=O)O)CC(C)(C)N1O.[Zn+2]', 'growth inhibition', '-41.9% (inactive)'),
  ('COc1ccc(NC(C)=O)cc1', 'growth inhibition', '13.8% (inactive)'),
  ('CCOC(OCC)C(=O)NC(Cc1ccccc1NC(=O)c1ccccc1)c1ccc2c(c1)OCO2 (centres undefined)', 'growth inhibition', '4.8% (inactive)'),
  ('Cc1ccc(/C=C2\CCCC\C2=N\O)cc1', 'growth inhibition', '-10.2% (inactive)'),
  ('COC1OC(C)C(OC(=O)c2ccccc2)C(OC(=O)c2ccccc2)C1OC(=O)c1ccccc1 (centres undefined)', 'growth inhibition', '-23.6% (inactive)'),
  ('CC1(C)OC2OC3C(Br)C(=O)OC3C2O1 (centres undefined)', 'growth inhibition', '9.65% (inactive)'),
  ('Cc1ccc(Cl)cc1NC(=O)c1ccccc1', 'growth inhibition', '-28.9% (inactive)'),
  ('O=C1CC2c3ccccc3CCN2C2=C1CCC2 (centres undefined)', 'growth inhibition', '-16.2% (inactive)'),
  ('c1ccc(N=c2sc3ccccc3nc2Nc2ccccc2)cc1', 'growth inhibition', '-64.8% (inactive)'),
  ('N#CCCC(CC#N)N1CCN(CCO)CC1 (centres undefined)', 'growth inhibition', '-21.2% (inactive)'),
  ('CCc1ccc2nccc(NCCCN(C)C)c2c1[N+](=O)[O-]', 'growth inhibition', '15.2% (inactive)'),
  ('CC(=O)Nc1ccc(NC(=O)NCCCCCCNC(=O)Nc2ccc(NC(C)=O)cc2)cc1', 'growth inhibition', '-20.6% (inactive)'),
  ('NC(=O)c1ccc(F)cc1', 'growth inhibition', '-16.1% (inactive)'),
  ('NC(=O)CC[n+]1ccccc1', 'growth inhibition', '11.7% (inactive)'),
  ('Cc1ccc2ccc3ccccc3c2c1', 'growth inhibition', '20.4% (inactive)'),
  ('Cc1cc(-c2cccc3ccccc23)[n+]([O-])cc1C', 'growth inhibition', '-16.3% (inactive)'),
  ('COc1ccc(OC2OC(CO)C(O)C(O)C2O)cc1 (centres undefined)', 'growth inhibition', '18.1% (inactive)'),
  ('CCOC(C)(Cc1ccccc1[N+](=O)[O-])OCC', 'growth inhibition', '2.5% (inactive)'),
  ('Cc1nc2c3c(ccc2[nH]c1=O)C(=O)c1ccccc1C3=O', 'growth inhibition', '16.9% (inactive)'),
  ('O=C1NCCCC1C(=O)Nc1cccc2c1NCCC2 (centres undefined)', 'growth inhibition', '-1.45% (inactive)'),
  ('C=C(NC(=O)C(c1ccccc1)c1ccccc1)C(=O)O', 'growth inhibition', '-25.1% (inactive)'),
  ('C(=N\N(c1ccccc1)c1ccccc1)/C(c1ccccc1)c1ccccc1', 'growth inhibition', '-3.95% (inactive)'),
  ('O=[N+]([O-])c1cccc(Nc2nc(Cl)nc(Cl)n2)c1', 'growth inhibition', '-8.25% (inactive)'),
  ('Cc1[nH]c2ccccc2c1/C=C/c1c[nH]c2ccccc12', 'growth inhibition', '15.8% (inactive)'),
  ('CCOC(=O)c1ccc2c(c1)C(=O)c1cc([N+](=O)[O-])ccc1-2', 'growth inhibition', '10.6% (inactive)'),
  ('CN=Nc1c(O)[nH]c2ccc(C)cc12', 'growth inhibition', '-43.1% (inactive)'),
  ('O=C(c1ccc(-c2ccccc2)cc1)C(O)c1ccc(-c2ccccc2)cc1 (centres undefined)', 'growth inhibition', '-5.35% (inactive)'),
  ('O=C(NCCOC(=O)OCCNC(=O)NC1CCCCC1)NC1CCCCC1', 'growth inhibition', '4.1% (inactive)'),
  ('Cc1ccccc1C(=O)c1cccc2cccc(C(=O)c3ccccc3C)c12', 'growth inhibition', '7.8% (inactive)'),
  ('CC(C)=NNC(=O)c1ccc(N)cc1', 'growth inhibition', '15.8% (inactive)'),
  ('N/N=C1\C(=O)N(C2CCCCCC2)C(=O)C1C(=O)NC1CCCCCC1 (centres undefined)', 'growth inhibition', '-68.7% (inactive)'),
  ('CCCCC(Sc1nn(C2OC(COC(=O)c3ccccc3)C(OC(=O)c3ccccc3)C2OC(=O)c2ccccc2)c(=O)[nH]c1=O)C(=O)OCC (centres undefined)', 'growth inhibition', '-33.4% (inactive)'),
  ('CNCCCn1c2ccccc2c2c3c(c(-c4ccsc4)cc21)C(=O)NC3=O', 'growth inhibition', '-4.3% (inactive)'),
  ('O=C1N=C2Sc3ccc4ccccc4c3N2C1=O', 'growth inhibition', '20.4% (inactive)');

====

# test_protocol: NCI Yeast Anticancer Drug Screen. Data for the sgs1 mgt1 strain (AID 161);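 note: 0% = growth of cultures given vehicle only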
# test_parameters: S. cerevisiae sgs1 mgt1 strain, stronger effect = higher value; at 50.0 µM unless noted
This is part of a sample that, as a whole, favours compounds with a hit. Of some 79,000 tested, about 15% had one in any assay.
Examples of compounds with documented growth inhibition follow.
reported_property: growth inhibition (%)

INSERT INTO results (smiles_representation, readout_unit, assay_value) VALUES
  ('Cc1ccccc1C(=O)NC(O)(C(F)(F)F)C(F)(F)F', '%', 14.6),
  ('O=S1(=O)C(c2cccc(F)c2)=C(O)c2cc3ccccc3nc21', '%', 11.6),
  ('NC1=NC(=O)/C(=C/c2ccccc2[N+](=O)[O-])C(N)=N1', '%', 10.8),
  ('Cc1ccccc1NC(=O)C(=O)CC(=O)c1sc(-n2nc(-c3ccccc3)cc2-c2ccccc2)nc1C', '%', 5.45),
  ('O=C(O)Cc1ccc(C(=O)O)cc1', '%', 5.8),
  ('Cc1cccc[n+]1C', '%', 0.05),
  ('COC(=O)Nc1ccc(Cc2ccc(NC(=O)OC)cc2)cc1', '%', 27.5),
  ('COc1cccc2c1C(=O)c1c(O)c(CCl)cc(OC)c1C2=O', '%', 20.9),
  ('O=C(NCN1CCOCC1)NC(=O)NCN1CCOCC1', '%', -7.6),
  ('CCOC(=O)CN(Cn1cncn1)Cn1cncn1', '%', 22.2),
  ('CN(C)C(=S)Oc1c([N+](=O)[O-])cc([N+](=O)[O-])cc1C(C)(C)C', '%', 93.8),
  ('CC(=O)CC(=O)Nc1ccc(OS(N)(=O)=O)cc1', '%', 1.95);
